A set of compounds tested on Kappa-type opioid receptor (Homo sapiens), with measured pKi:
Scale for pKi: -log10 of concentration given in mol/L; no unit attached.

IN: Name the reported pKi value associated with the compound CCOC(=O)CC(=O)O[C@H]1C[C@@H](C(=O)OC)[C@]2(C)CC[C@H]3C(=O)O[C@H](c4ccoc4)C[C@]3(C)[C@H]2C1=O [ETHYLSALVINORINB-2-O-MALONATE]
OUT: 7.68

IN: Name the reported pKi value associated with the compound COC(=O)CCCCC(=O)O[C@H]1C[C@@H](C(=O)OC)[C@]2(C)CC[C@H]3C(=O)O[C@H](c4ccoc4)C[C@]3(C)[C@H]2C1=O
OUT: 6.24

IN: Name the reported pKi value associated with the compound COC(=O)CCC(=O)O[C@H]1C[C@@H](C(=O)OC)[C@]2(C)CC[C@H]3C(=O)O[C@H](c4ccoc4)C[C@]3(C)[C@H]2C1=O
OUT: 7.44

IN: Name the reported pKi value associated with the compound COC(=O)/C=C/C(=O)O[C@H]1C[C@@H](C(=O)OC)[C@]2(C)CC[C@H]3C(=O)O[C@H](c4ccoc4)C[C@]3(C)[C@H]2C1=O
OUT: 7.41

IN: Name the reported pKi value associated with the compound CCOC(=O)/C=C/C(=O)O[C@H]1C[C@@H](C(=O)OC)[C@]2(C)CC[C@H]3C(=O)O[C@H](c4ccoc4)C[C@]3(C)[C@H]2C1=O
OUT: 6.37

IN: Name the reported pKi value associated with the compound COC(=O)[C@@H]1C[C@H](OC(=O)CCCC(=O)O)C(=O)[C@H]2[C@@]1(C)CC[C@H]1C(=O)O[C@H](c3ccoc3)C[C@]21C
OUT: 6.58
